# method-description: yeast display, Sf9 membrane polyspecificity reagent, FACS + sequencing; frameworks hold sequencing errors

{"columns": ["primary-sequence", "polyreactivity (PSR sort gate)"],
 "data": [
  ["QVQLVESWGGLFQAGGSLRLSCAASGSTFIYNAMGWYRKAPGKERELVAAITWNYGSTYYADSVKGRFTISRDNANNTVYLQMNSLKPEDTAVYYCAADFTIPYWDANFDYWGQGTQVTVSW", "low polyreactivity"],
  ["QFQLVESGGGLVQAGGSLRLSCAASGSIFVLYAMGWYRQAPGKERELVAAITSAGSTYYADSVKGRFTISRDNAKNTVYLQMNSLKPEDTAVYYCAAGFYGYARHTWYNDWGQGTQVTVSS", "high polyreactivity"],
  ["QVQLVESGGGLVQAGGSLRLSCAASGFIFKSYAMGWYRPAPGKERELVAAISSGGTTNYADSVKGRFTISRDNANNTVYLQMNSLKPEDTAVYYCAAALHGHTFPFYYWGHGTQVTVSS", "low polyreactivity"],
  ["QVQLVESGGGLVQAGVSLRLSCAASGGTFSRNAMGWYRQAPGKERELVAAINSSGVSTSYADSVKGRFTISRDNAKNTVYLQMNSLKPEDTAVYYCAAETSSAEVDYWGQGTQVTVSS", "low polyreactivity"],
  ["QVQLVESGGGLVQAGGSLRLSCASSGRIFSFYAMGWYRQAPGKERELVAAISWNSGRTYYADSVKGRFTISRDNAKNTVYLQMNSLKPEDTAVYYCAAPFSAYYGDDYWGQGTQVTVSS", "low polyreactivity"],
  ["QVQLVESGGGLVQAGGSLRLSCAASGRIFSNNAMGWYRQAPGNERELVAAISSSGGSTYYADSVKGRFTISRDNAKNTVYLQMNSLKPEDTAVSYCNVGRRKIDDYWGQGTQVTVSS", "high polyreactivity"],
  ["QVQLVESGGGLVQAGGSLRLSCAASGSTFKGTAMGWYRQAPGNERELVAAINRSGTSTYYAHSVKGRFTISRDNAKNTVYLQMNSLKPEDTAVYYCANKYFGHRFDYWGQGTQVTVSS", "high polyreactivity"],
  ["QVQLVESGGGLVQAGGSLRLSCAASGFIFAGYAMGWYRQAPGKERELVAAISSRGGSTYYADSVKGRFTISRDNAKNTVYLQMNSLKPEDTAVYYCNKYYYGFTPDGYKKMDYWGQGTQVTVSS", "low polyreactivity"],
  ["QVQLVESGGGLDQAGGSLRLSCAASGSIFETYVMGWYRQAPGKERELVAAINSGGSTYYADSVKGRFTISRDNAKNTVYLQMNSLKPEDTAVYYFAADSPYGYYEGDYWGQGTQVTVSS", "low polyreactivity"],
  ["QVQLVESGGGLVQAGGSLLLSCAASGRTFYVYAMGWYRQAPGKERELVAAITSGGRTYYADSVKGRFTISRDNAKNTVYLQMNRLKPEDTAVYYCNARRTSRSYSFNYWGQGTQVTVSS", "high polyreactivity"],
  ["QVQLEESGGGLVQAGGSLRLSCAASGFILCDYAMGWYRQATGKERELVAGINYRGGSTHYADSVKGRFTISRDIAKNTVYLQMNSLKPEDTAVYYCSKRRQSYPYKTSTWYSHYSWGQGTQVTVSS", "high polyreactivity"]
]}
